- subjectOfTest: T1, SNTG1, Q9NSN8
- T1 sequence (Q9NSN8 52-150, limits assumed, looked up): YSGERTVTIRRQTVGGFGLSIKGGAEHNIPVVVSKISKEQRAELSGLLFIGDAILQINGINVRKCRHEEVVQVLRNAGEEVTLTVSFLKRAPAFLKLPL
- experimentSummary: holdup assay
- Set-up: key: below the threshold = too weak to quantify, mostly under pKd 3.1 to 4
- particulars: plain residues with an end cap or a label only (N-terminal biotin on a linker: ahx)
Would you please tag the item YES when its pKd is 4 or above, and NO when it is below?

binder: AKPQPVDSWV [ARVCF, O00192]
assignedLabel: YES

binder: YNSFLSVTTV [PDZRN3, Q9UPQ7]
assignedLabel: NO

binder: PKMKLNETSF [SHKBP1, Q8TBC3]
assignedLabel: NO
